# Target or test system: Muscarinic acetylcholine receptor M2 (Homo sapiens); further: assay procedure not described here
# Sequence (P08172 whole entry): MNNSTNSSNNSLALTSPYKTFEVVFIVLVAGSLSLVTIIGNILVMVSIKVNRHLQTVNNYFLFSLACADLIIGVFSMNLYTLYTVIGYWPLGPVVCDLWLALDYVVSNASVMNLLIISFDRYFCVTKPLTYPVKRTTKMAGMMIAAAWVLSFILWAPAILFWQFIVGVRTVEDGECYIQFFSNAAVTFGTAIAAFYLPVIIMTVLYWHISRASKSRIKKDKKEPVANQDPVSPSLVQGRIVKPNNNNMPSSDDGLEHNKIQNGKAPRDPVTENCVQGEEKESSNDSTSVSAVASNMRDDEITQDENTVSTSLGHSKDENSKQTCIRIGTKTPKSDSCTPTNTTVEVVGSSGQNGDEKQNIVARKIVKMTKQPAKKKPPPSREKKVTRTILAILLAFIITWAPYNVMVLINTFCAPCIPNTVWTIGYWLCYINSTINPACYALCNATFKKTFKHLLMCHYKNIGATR
# Type: functional, cell-based
Measured quantity: AC50

Compound	AC50
CC[C@H](C)C(=O)O[C@H]1C[C@@H](C)C=C2C=C[C@H](C)[C@H](CC[C@@H]3C[C@@H](O)CC(=O)O3)[C@H]21	> 10 µM
O=c1[nH]c2ccccc2n1CCCN1CCN(C(c2ccccc2)c2ccccc2)CC1 [OXATOMIDE]	> 30 µM
COc1ccc([C@@H]2CC(=O)c3c(O)cc(O)cc3O2)cc1O	> 10 µM
CN[C@]1(c2ccccc2Cl)CCCCC1=O	> 30 µM

Form entry - test system: Muscarinic acetylcholine receptor M2 (Homo sapiens); read-out: AC50; compound: `C[C@]12CCC(=O)C[C@@H]1CC[C@@H]1[C@@H]2CC[C@]2(C)[C@@H](O)CC[C@@H]12` > 30 µM

Form entry - test system: Muscarinic acetylcholine receptor M2 (Homo sapiens); read-out: AC50; compound: `CC(C)c1cccc(C(C)C)c1O` > 30 µM

Form entry - test system: Muscarinic acetylcholine receptor M2 (Homo sapiens); read-out: AC50; compound: `CCC[C@@H]1C[C@@H](C(=O)N[C@@H]([C@H]2O[C@H](SC)[C@H](O)[C@@H](O)[C@H]2O)[C@@H](C)O)N(C)C1` > 10 µM

Form entry - test system: Muscarinic acetylcholine receptor M2 (Homo sapiens); read-out: AC50; compound: `CCCN(CCC)S(=O)(=O)c1ccc(C(=O)O)cc1` > 10 µM

Form entry - test system: Muscarinic acetylcholine receptor M2 (Homo sapiens); read-out: AC50; compound: O=C1OC(OC(=O)c2cccnc2Nc2cccc(C(F)(F)F)c2)c2ccccc21 (centres undefined) [TALNIFLUMATE] > 30 µM
